- assay-method-text: NCI Yeast Anticancer Drug Screen. Data for the mec2-1 strain (AID 157)
- experimental-parameters: S. cerevisiae mec2-1 strain, at 50.0 µM, active compounds read high
The panel holds about 79,000 compounds, 15% with a hit somewhere; the sample as a whole holds those more often.
Label scheme for growth inhibition: lower than 60% is no, 60% and above is yes.

Below, 3 molecules whose answers are already recorded.
[
  {
    "molecule": "COC(=O)C(=O)C(C(=O)C(=O)Nc1ccc(C)cc1C)c1nc2ccccc2[nH]c1=O (configuration not stated)",
    "category-label": "no"
  },
  {
    "molecule": "CC(=O)N(C)C1=C(Sc2ccc(C)cc2)C(=O)c2ccccc2C1=O",
    "category-label": "yes"
  },
  {
    "molecule": "N#Cc1c(-c2ccc(Cl)cc2)c(-c2ccc(Cl)cc2)nn(CCOC(=O)CN)c1=O",
    "category-label": "no"
  }
]

Query block: Quick check, growth inhibition >= 60%? CN(C(=O)c1cccs1)C(=S)N1CCN(c2ccccc2)CC1
Result block: yes

Query block: Quick check, growth inhibition >= 60%? O=[N+]([O-])c1cccc(/C=N/Nc2ccc3ccccc3n2)c1O
Result block: yes

Query block: Quick check, growth inhibition >= 60%? O=C(Nc1cccc2ccccc12)OCCCCCCl
Result block: yes

Query block: Quick check, growth inhibition >= 60%? CC1=NC(C)C(C)S1 (configuration not stated)
Result block: no

Query block: Quick check, growth inhibition >= 60%? Cn1c(=O)c2c(nnc(-c3ccccc3)[n+]2[O-])n(C)c1=O
Result block: yes

Query block: Quick check, growth inhibition >= 60%? CSc1nc(C)c(C(=O)CCN2CCOCC2)s1
Result block: yes

Query block: Quick check, growth inhibition >= 60%? CCCCOc1ccc(CN2CCOC2=O)cc1
Result block: no

Query block: Quick check, growth inhibition >= 60%? Cc1cn(C2OC(CO)C(O)C(O)C2N)c(=O)[nH]c1=O (configuration not stated)
Result block: yes

Query block: Quick check, growth inhibition >= 60%? N=C(N)c1cccc(-c2ccc(-c3ccccc3)o2)c1
Result block: yes

Query block: Quick check, growth inhibition >= 60%? CC(C)OP(=O)(CCCCCCCCC/C=C/c1ccc2c(c1)OCCOCCOCCOCCO2)OC(C)C
Result block: yes

Query block: Quick check, growth inhibition >= 60%? O=C1C=CC(=O)C(c2ccccc2)=C1
Result block: yes

Query block: Quick check, growth inhibition >= 60%? CCCCCN(CCC)CCCCCCCCCN1CCCc2cc(OC)ccc21
Result block: yes

Query block: Quick check, growth inhibition >= 60%? CC(=O)OCC1OC(Sc2ccc3ccccc3c2)C(OC(C)=O)C(OC(C)=O)C1OC(C)=O (configuration not stated)
Result block: no

----------
- assay-method-text: NCI Yeast Anticancer Drug Screen. Data for the bub3 strain (AID 167)
- experimental-parameters: S. cerevisiae bub3 mutant strain, at 50.0 µM
About 79,000 compounds went through this panel and 15% of them were active in at least one assay; those are over-represented in the sample as a whole. Active and inactive are the calls of the source. No stated cut-off is given here; in the data, active means growth inhibition above about 70%; inactive means the rest.
Return exactly one item of active, inactive

Below, 4 molecules whose answers are already recorded.
[
  {
    "molecule": "ClC(Cl)(Cl)C(c1ccccc1)c1ccccc1",
    "category-label": "inactive"
  },
  {
    "molecule": "Clc1ccccc1/C=C/c1nccc2ccccc12",
    "category-label": "active"
  },
  {
    "molecule": "CN(C)N=Nc1ccc(-c2ccccc2)cc1",
    "category-label": "active"
  },
  {
    "molecule": "CCCCCOC(=O)C1C(=O)CC(c2ccccc2)C1c1ccccc1 (stereo unspecified)",
    "category-label": "inactive"
  }
]

Query block: For O=S(=O)(NC1CCCCC1)c1ccc2c(c1)OCCOCCOCCOCCO2 , which call appears in the assay record?
Result block: active

Query block: For CSC(=Nc1ccc(Cl)cc1)N1CC=Cc2ccccc21 , which call appears in the assay record?
Result block: active
